Listing of entries alongside the reported cytotoxicity at 10 µM.
Assay: Toxicity liver stage against HepG2, at 10uM
Type: cell-based
Design: test concentration 10 uM, cell line HepG2-A16-CD81EGFP
Condition Summary: human, HepG2-A16-CD81EGFP cells; read-out: INHIBITION
State the answer as a number, implicitly in %.

INSERT INTO measurements (compound, endpoint_unit, endpoint_result) VALUES
  ('CCN(Cc1nc(COC)no1)C(=O)CCn1c(C)cc2ccccc21', '%', -0.0679);

[ask] cytotoxicity at 10 µM lookup needed for Cn1cc(CCC(=O)NS(=O)(=O)N2CCCc3ccccc32)cn1 , thanks.
[reply] 14.6

[ask] cytotoxicity at 10 µM lookup needed for CS(=O)(=O)c1ccc(C(=O)N2CCCC(n3ccnc3)C2)cc1 (centres undefined) , thanks.
[reply] -19.4
